system: histone modifications in 2102EP cells; assay: Mass spectrometry analysis of histone modifications (Mod Spec); assay type: cell-based, Human; details: 2102EP cells; Mod Spec raw data
Experimental readout: H3: K14AC, % of peptide pool (%)
Numbers only, in %.

# input molecule: CCCc1cc(C)[nH]c(=O)c1CNC(=O)c1cc(-c2ccnc(N3CCN(C)CC3)c2)cc2c1cnn2C(C)C [GSK343] ; wanted: its H3: K14AC, % of peptide pool 31.7092

# input molecule: Clc1ccc(N/N=C(\c2ccccc2)c2ccccn2)nc1 [JIB-04] ; wanted: its H3: K14AC, % of peptide pool 29.7131

# input molecule: O=C1C(=Cc2cccnc2)C(=O)c2ccccc21 [PRT4165] ; wanted: its H3: K14AC, % of peptide pool 32.0961

# input molecule: Cn1cc(CNCC2CCN(c3ncc(C(=O)NO)cn3)CC2)c2ccccc21 [Quisinostat] ; wanted: its H3: K14AC, % of peptide pool 58.3927

# input molecule: CN1C(=O)[C@@]23C[C@]4([C@]56C[C@@]78SS[C@@](CO)(C(=O)N7[C@H]5Nc5ccccc56)N(C)C8=O)c5ccccc5N[C@@H]4N2C(=O)[C@]1(CO)SS3 [Chaetocin] ; wanted: its H3: K14AC, % of peptide pool 29.886

Give H3: K14AC, % of peptide pool for each listed item.
1. Cc1cc(=O)n(C)c2cc(N3C(=O)CC[C@H](NS(=O)(=O)CC(C)C)[C@H]3c3ccc(Cl)cc3)ccc12 [LP99]
2. Cc1ncsc1-c1ccc(CNC(=O)[C@@H]2C[C@@H](O)CN2C(=O)[C@@H](NC(=O)COCCOCCOCCNC(=O)C[C@@H]2N=C(c3ccc(Cl)cc3)c3c(sc(C)c3C)-n3c(C)nnc32)C(C)(C)C)cc1 [MZ-1]

1. 29.2531
2. 33.1456
